- subject.of.test: Xenopus laevis class B Survivin R89H (X. laevis, UniProt Q8JGN5 1-160, R89H)
- Sequence (Q8JGN5 whole entry R89H): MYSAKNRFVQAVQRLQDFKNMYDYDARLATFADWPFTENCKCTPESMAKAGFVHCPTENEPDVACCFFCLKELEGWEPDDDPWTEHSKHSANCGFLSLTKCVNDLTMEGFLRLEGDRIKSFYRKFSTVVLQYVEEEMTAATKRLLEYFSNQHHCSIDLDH
- test.description: ITC
measure: pKd
Bear in mind: pKd is minus log10 of a mol/L concentration; give just that figure.

Enquiry: Fill blank: measured pKd of the binder ARTKQTARKSTG [histone H3 N-terminal peptide ARTKQTARKSTG, unmodified] is ____.
Return: 4.89

Values were extracted from paper PMC3327328.
